# MEASURED_ON: T1, H3K27me3 peptide (Kme3 (trimethyl-lysine) at the 10th residue (KQLATKAARKme3SAPATGGVK); N-terminus biotin + aminohexanoic acid linker, or FITC at the N-terminus for fluorescence polarization)
# T1 construct: Synthetic peptide (GenScript); One entry is used for the biotinylated and the FITC-labelled form
# T1 peptide: KQLATKAARKSAPATGGVK
# TEST_SUMMARY: BLI, biotinylated peptide on streptavidin tips, steady state
OUTCOME_MEASURE: pKd
Scale note: pKd = -log10(concentration in M).

input: Please indicate pKd recorded for Cbx7.V1 back-mutant D9Q, His6- and Flag-tagged (designed binder, not shown: small tags and cut ends) SAIGDQIFAVESIRKKRVRKGKVEYLVKWEGWPLEYSTWEPEEHILDPRLVMAYEEKEERDRASGYRKRGPK
output: 5.70

input: Please look at this binder and report its pKd: Cbx7.V1 back-mutant D8E, His6- and Flag-tagged (designed binder, not shown: small tags and cut ends) SAIGEDIFAVESIRKKRVRKGKVEYLVKWEGWPLEYSTWEPEEHILDPRLVMAYEEKEERDRASGYRKRGPK
output: 5.70

input: Look up pKd of Cbx7.V1 back-mutant I10V, His6- and Flag-tagged (designed binder, not shown: small tags and cut ends) SAIGDDVFAVESIRKKRVRKGKVEYLVKWEGWPLEYSTWEPEEHILDPRLVMAYEEKEERDRASGYRKRGPK and report it.
output: 5.70

input: Indicate its recorded pKd; the binder in question is Cbx7.V1 back-mutant L37P, His6- and Flag-tagged (designed binder, not shown: small tags and cut ends) SAIGDDIFAVESIRKKRVRKGKVEYLVKWEGWPPEYSTWEPEEHILDPRLVMAYEEKEERDRASGYRKRGPK
output: 5.60

input: Write down pKd measured for item Cbx7.V1 chromodomain, His6- and Flag-tagged (designed binder, not shown: small tags and cut ends, BLI form; tags are said to be removed only for FP and ITC) SAIGDDIFAVESIRKKRVRKGKVEYLVKWEGWPLEYSTWEPEEHILDPRLVMAYEEKEERDRASGYRKRGPK
output: 5.70

input: Supply reported pKd belonging to this binder: Cbx7.V1 back-mutant E38K, His6- and Flag-tagged (designed binder, not shown: small tags and cut ends) SAIGDDIFAVESIRKKRVRKGKVEYLVKWEGWPLKYSTWEPEEHILDPRLVMAYEEKEERDRASGYRKRGPK
output: 5.82
